target or system: Fibroblast growth factor 2 (Homo sapiens)
measurement protocol: basic fibroblast growth factor binding to printed compounds – biochemical, small-molecule microarray, 635/667 nm fluorescence, primary screen (AID 1133)
run parameters: FGF2, fluorescence 635/667, higher = more signal
Is composite z-score at least 0.2? Then Met. If not, Not met.

Previously resolved entries follow.
{"compound": "C[C@@H]1ON(c2ccc(I)cc2)[C@H](c2cccc(NC(=O)OCC3c4ccccc4-c4ccccc43)c2)[C@H]1C(=O)N1C(=O)OC[C@H]1Cc1ccccc1", "group label": "Met"}
{"compound": "C=CCN1C(=O)[C@]2(O[C@H](CCn3cc([C@H](O)c4ccccc4)nn3)[C@@H]([Si](C)(C)c3ccc(OC)cc3)[C@@H]2C)c2cc(NC(=O)c3ccc(OC)cc3)ccc21", "group label": "Met"}

Now consider the entry below.
Is it the case that "CC(C)N1C(=O)c2ccccc2[C@](C)(C(=O)NCC(F)(F)F)[C@@H]1c1ccc(CO)cc1" has composite z-score reaching or exceeding 0.2? Not met

Reference source for all entries: PubChem BioAssay
